Measured pIC50, listed per entry for reference.
# TARGET: IDH1 R132C (Homo sapiens (Human), UniProt O75874, R132C)
# Sequence (O75874 whole entry R132C): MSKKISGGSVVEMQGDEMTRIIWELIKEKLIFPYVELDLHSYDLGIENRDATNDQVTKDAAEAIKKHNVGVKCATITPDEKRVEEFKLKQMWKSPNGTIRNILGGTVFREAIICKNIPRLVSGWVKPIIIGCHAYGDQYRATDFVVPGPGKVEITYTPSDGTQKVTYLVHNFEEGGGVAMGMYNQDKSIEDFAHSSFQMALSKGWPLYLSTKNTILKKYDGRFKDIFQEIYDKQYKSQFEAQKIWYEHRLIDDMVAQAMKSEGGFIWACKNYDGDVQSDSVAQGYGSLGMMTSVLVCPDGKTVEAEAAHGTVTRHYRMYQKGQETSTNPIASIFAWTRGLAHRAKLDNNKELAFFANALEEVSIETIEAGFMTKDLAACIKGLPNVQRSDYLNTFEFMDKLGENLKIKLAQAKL
# ASSAY_COMMENT: In vitro assay IDH1 R132C homodimer, NADPH depletion assay
# Assay type: biochemical
pIC50: −log10 of the molar value.

Example results:
COMPOUND	QUANTITY	RESULT
C[C@@H](Nc1cc(NC(C)(C)C)nc(-c2cccc(C(F)(F)F)n2)n1)C1CC1	pIC50	< 6.00
CC(C)C(C)Nc1nc(NC(C)C(C)C)nc(-c2cccc(C(F)(F)F)n2)n1 (stereo not shown)	pIC50	7.00 to 7.30

Record `CC(C)(C)Nc1nc(NC(C)(C)C)nc(-c2cccc(C(F)(F)F)n2)n1` / IDH1 R132C (Homo sapiens (Human), UniProt O75874, R132C), pIC50 recorded as 7.00 to 7.30

Record `C[C@@H](Nc1nc(NC2CCC(F)(F)CC2)nc(-c2cccc(C(F)(F)F)n2)n1)C1CC1` / IDH1 R132C (Homo sapiens (Human), UniProt O75874, R132C), pIC50 recorded as 7.00 to 7.30

Record CCCC(C)Nc1nc(N[C@H](C)C2CC2)nc(-c2cccc(C(F)(F)F)n2)n1 (stereo partly shown) / IDH1 R132C (Homo sapiens (Human), UniProt O75874, R132C), pIC50 recorded as 7.00 to 7.30

Record `C[C@H](Nc1nc(N[C@H](C)c2ccccc2)nc(-c2cccc(C(F)(F)F)n2)n1)c1ccccc1` / IDH1 R132C (Homo sapiens (Human), UniProt O75874, R132C), pIC50 recorded as < 6.00

Record `FC1(F)CCC(Nc2nc(NC3CCC(F)(F)CC3)nc(-c3cccc(C(F)(F)F)n3)n2)CC1` / IDH1 R132C (Homo sapiens (Human), UniProt O75874, R132C), pIC50 recorded as < 6.00

Record `CC(C)Nc1nc(NC(C)(C)C#N)nc(-c2cc(O)ccc2F)n1` / IDH1 R132C (Homo sapiens (Human), UniProt O75874, R132C), pIC50 recorded as < 6.00

Record `C[C@@H](Nc1nc(NC(=O)c2ccccc2)nc(-c2cccc(C(F)(F)F)n2)n1)C1CC1` / IDH1 R132C (Homo sapiens (Human), UniProt O75874, R132C), pIC50 recorded as < 6.00

Record `FC(F)(F)c1cccc(-c2nc(NCC3CC3)nc(NCC3CC3)n2)n1` / IDH1 R132C (Homo sapiens (Human), UniProt O75874, R132C), pIC50 recorded as < 6.00

Record `C[C@@H](Nc1nc(N[C@H](C)C2CC2)nc(-c2cccc(CO)c2)n1)C1CC1` / IDH1 R132C (Homo sapiens (Human), UniProt O75874, R132C), pIC50 recorded as < 6.00

Record CC(Nc1nc(N[C@H](C)C2CC2)nc(-c2cccc(C(F)(F)F)n2)n1)c1cccc(F)c1 (stereo partly shown) / IDH1 R132C (Homo sapiens (Human), UniProt O75874, R132C), pIC50 recorded as 7.00 to 7.30

Record `CC(C)Nc1nc(NC(C)C)nc(-c2cccc(C(F)(F)F)n2)n1` / IDH1 R132C (Homo sapiens (Human), UniProt O75874, R132C), pIC50 recorded as 7.00 to 7.30

Record CC(Nc1nc(N[C@H](C)C2CC2)nc(-c2cccc(C(F)(F)F)n2)n1)c1cccc(C(F)(F)F)c1 (stereo partly shown) / IDH1 R132C (Homo sapiens (Human), UniProt O75874, R132C), pIC50 recorded as 6.00 to 7.00

Record `C[C@@H](Nc1nc(N[C@H]2CCCC[C@@H]2O)nc(-c2cccc(C(F)(F)F)n2)n1)C1CC1` / IDH1 R132C (Homo sapiens (Human), UniProt O75874, R132C), pIC50 recorded as 6.00 to 7.00

Record CC(O)CNc1nc(N[C@H](C)C2CC2)nc(-c2cccc(C(F)(F)F)n2)n1 (stereo partly shown) / IDH1 R132C (Homo sapiens (Human), UniProt O75874, R132C), pIC50 recorded as < 6.00

Record `CC(C)[C@@H](C)Nc1nc(N[C@H](C)C(C)C)nc(-c2cccc(C(F)(F)F)n2)n1` / IDH1 R132C (Homo sapiens (Human), UniProt O75874, R132C), pIC50 recorded as 7.00 to 7.30

Record `CC(C)(CO)Nc1nc(Nc2ccnc(C(C)(F)F)c2)nc(-c2cccc(C(F)(F)F)n2)n1` / IDH1 R132C (Homo sapiens (Human), UniProt O75874, R132C), pIC50 recorded as < 6.00

====

# TARGET: IDH1-R132H homodimer enzyme (Homo sapiens (Human), UniProt O75874, R132H)
# Sequence (O75874 whole entry R132H): as the sequence (O75874 whole entry R132C) above, with C132H counted along it
# ASSAY_COMMENT: In vitro assay IDH1-R132H homodimer, NADPH depletion assay with NADPH/NADP preincubation
# TEST_CONDITIONS: 5 μM NADPH and 37.5 μM NADP
QUANTITY: IC50

COMPOUND	QUANTITY	RESULT
CC(C)(O)CNc1nc(NC2CCC(F)(F)C2)nc(-c2cccc(C(F)(F)F)n2)n1 (stereo not shown)	IC50	100 to 1000 nM
CC(COC(C)C)Nc1nc(N[C@H](C)C2CC2)nc(-c2cccc(C(F)(F)F)n2)n1 (stereo partly shown)	IC50	100 to 1000 nM
CC(Nc1nc(Nc2ccnc(C3(C#N)CC3)c2)nc(-n2ccc(C(F)(F)F)n2)n1)C(F)(F)F (stereo not shown)	IC50	50 to 100 nM
CC(C)(C)Nc1nc(Nc2ccnc(C(C)(F)F)c2)nc(-c2nccc(C(F)(F)F)n2)n1	IC50	> 1000 nM
FC1(F)CC(Nc2nc(Nc3ccnc(C(F)(F)F)c3)nc(-c3cccc(C(F)(F)F)n3)n2)C1	IC50	100 to 1000 nM
Cc1nc(-c2nc(NC3CCC(F)(F)CC3)nc(NC3CCC(F)(F)CC3)n2)c[nH]1	IC50	> 1000 nM

Lab note: measured IC50 of Cc1nc(-c2nc(NC3CCC(F)(F)C3)nc(NC3CCC(F)(F)C3)n2)c[nH]1 (stereo not shown) was > 1000 nM

Lab note: measured IC50 of CC(CC#N)Nc1nc(N[C@H](C)C2CC2)nc(-c2cccc(C(F)(F)F)n2)n1 (stereo partly shown) was 100 to 1000 nM

Lab note: measured IC50 of `Fc1cc(F)cc(Nc2nc(NC3CC(F)(F)C3)nc(-c3cncc(Cl)n3)n2)c1` was < 50 nM

Lab note: measured IC50 of `Cc1nsc(-c2nc(NC3CCC(F)(F)CC3)nc(NC3CCC(F)(F)CC3)n2)n1` was > 1000 nM

Lab note: measured IC50 of `CC(C)(CC#N)Nc1nc(Nc2ccnc(C(C)(F)F)c2)nc(-c2cccc(C(F)(F)F)n2)n1` was 100 to 1000 nM

Lab note: measured IC50 of `N#CC1(c2cc(Nc3nc(NCC(F)(F)F)nc(-c4cccc(Cl)n4)n3)ccn2)CC1` was 50 to 100 nM

Lab note: measured IC50 of `FC1(F)CCC(Nc2cc(NC3CCC(F)(F)CC3)nc(-c3cncc(C(F)(F)F)n3)n2)CC1` was 100 to 1000 nM

Lab note: measured IC50 of N#Cc1cc(Nc2nc(NC3CCC(F)(F)C3)nc(-c3cccc(C(F)(F)F)n3)n2)ccn1 (stereo not shown) was < 50 nM

Lab note: measured IC50 of `CC[C@H](Nc1nc(N[C@@H](CC)C(F)(F)F)nc(-c2cccc(Cl)n2)n1)C(F)(F)F` was < 50 nM

Lab note: measured IC50 of `C[C@@H](Nc1nc(NCC(C)(C)C#N)nc(-c2cccc(C(F)(F)F)n2)n1)C1CC1` was > 1000 nM

====

Measured pIC50, listed per entry for reference.
# TARGET: IDH1 wt/IDH1 R132H heterodimer (Homo sapiens (Human), UniProt O75874, R132H)
# Sequence (O75874 whole entry R132H): as the sequence (O75874 whole entry R132C) above, with C132H counted along it
# Sequence (O75874 whole entry, stated change not applied): as the sequence (O75874 whole entry R132C) above, with C132R counted along it
# ASSAY_COMMENT: In vitro assay for IDH1m R132H inhibitors, IDH1 wt/IDH1 R132H heterodimer, NADPH depletion (diaphorase/resazurin)
# Type: biochemical
# TEST_CONDITIONS: IDH1 wt/R132H heterodimer, NADPH/NADP, not saturated; read-out: IDH1 wt/R132H NADPH/NADP IC50 not saturated
pIC50: −log10 of the molar value.

Example results:
COMPOUND	TARGET	QUANTITY	RESULT
N#Cc1cc(F)cc(Nc2nc(NC3CC(F)(F)C3)nc(-c3nc(C(F)(F)F)cs3)n2)c1 [Compound 122]	IDH1 wt/IDH1 R132H heterodimer (Homo sapiens (Human), UniProt O75874, R132H)	pIC50	> 7.30
CC(C)Nc1nc(NC2CCCCC2)nc(-c2ccncc2)n1 [Compound 62]	IDH1 wt/IDH1 R132H heterodimer (Homo sapiens (Human), UniProt O75874, R132H)	pIC50	7.00 to 7.30
CC(C#N)Nc1nc(Nc2ccnc(C(C)(F)F)c2)nc(-c2cccc(C(F)(F)F)n2)n1 (centres unmarked) [Compound 253]	IDH1 wt/IDH1 R132H heterodimer (Homo sapiens (Human), UniProt O75874, R132H)	pIC50	7.00 to 7.30
FC1(F)CCC(Nc2nc(NC3CCC(F)(F)CC3)nc(-c3csc(C(F)(F)F)n3)n2)CC1 [Compound 223]	IDH1 wt/IDH1 R132H heterodimer (Homo sapiens (Human), UniProt O75874, R132H)	pIC50	> 7.30
FC1(F)CCC(Nc2nc(NC3CCC(F)(F)CC3)nc(-c3nc(C(F)(F)F)cs3)n2)CC1 [Compound 183]	IDH1 wt/IDH1 R132H heterodimer (Homo sapiens (Human), UniProt O75874, R132H)	pIC50	> 7.30

Record C[C@@H](Nc1nc(N[C@H](C)C2CC2)nc(-c2cccc(C#N)n2)n1)C1CC1 [Compound 269] / IDH1 wt/IDH1 R132H heterodimer (Homo sapiens (Human), UniProt O75874, R132H), pIC50 recorded as 6.00 to 7.00

Record FC1(F)CCC(Nc2nc(NC3CCOCC3)nc(-c3cccc(C(F)(F)F)n3)n2)CC1 [Compound 255] / IDH1 wt/IDH1 R132H heterodimer (Homo sapiens (Human), UniProt O75874, R132H), pIC50 recorded as 6.00 to 7.00

Record O=C(c1ccccc1)N1CCC(Nc2nc(NC3CCC(F)(F)C3)nc(-c3cccc(C(F)(F)F)n3)n2)C1 (centres unmarked) [Compound 263] / IDH1 wt/IDH1 R132H heterodimer (Homo sapiens (Human), UniProt O75874, R132H), pIC50 recorded as 6.00 to 7.00
